# test_system: T1, hu4-1BB-Fc (R&D Systems) (human, UniProt Q07011 24-186)
# T1 construct: Bought; also called human 4-1BB; not shown: human IgG Fc of the bought fusion
# protocol_text: SPR (Biacore 8K), hu4-1BB-Fc captured by anti-human IgG Fc; apparent value, 1:1 fit
readout_kind: kon (M⁻¹ s⁻¹)

binder	readout_kind	meas_value
multimeric protein SEQ ID NO: 44 (designed binder) GVRLWATRQAMLGQVHEVPEGWLIFVAEQEELYVRVQNGFRKVQLEARTPLGGGGSQDSTSDLIPAPPLSKVPLQQNFQDNQFHGKWYVVGQAGNIRLREDKDPIKMMATIYELKEDKSYDVTMVKFDDKKCMYDIWTFVPGSQPGEFTLGKIKSFPGHTSSLVRVVSTNYNQHAMVFFKFVFQNREEFYITLYGRTKELTSELKENFIRFSKSLGLPENHIVFPVPIDQCIDGGGSGGAPEQKLISEEDLGSHHHHHHHHHH	kon	87500
multimeric protein SEQ ID NO: 38 (designed binder, Trivalent; Self-assembled from its monomer polypeptides) QDSTSDLIPAPPLSKVPLQQNFQDNQFHGKWYVVGQAGNIRLREDKDPIKMMATIYELKEDKSYDVTMVKFDDKKCMYDIWTFVPGSQPGEFTLGKIKSFPGHTSSLVRVVSTNYNQHAMVFFKFVFQNREEFYITLYGRTKELTSELKENFIRFSKSLGLPENHIVFPVPIDQCIDGGGGGSGGGGSGGGGSGVRLWATRQAMLGQVHEVPEGWLIFVAEQEELYVRVQNGFRKVQLEARTPLGGSGGAPEQKLISEEDLGSHHHHHHHHHH	kon	89200
multimeric protein SEQ ID NO: 43 (designed binder) GVRLWATRQAMLGQVHEVPEGWLIFVAEQEELYVRVQNGFRKVQLEARTPLGGGGSGGGGSGGGGSQDSTSDLIPAPPLSKVPLQQNFQDNQFHGKWYVVGQAGNIRLREDKDPIKMMATIYELKEDKSYDVTMVKFDDKKCMYDIWTFVPGSQPGEFTLGKIKSFPGHTSSLVRVVSTNYNQHAMVFFKFVFQNREEFYITLYGRTKELTSELKENFIRFSKSLGLPENHIVFPVPIDQCIDGGGSGGAPEQKLISEEDLGSHHHHHHHHHH	kon	114000
multimeric protein SEQ ID NO: 40 (designed binder) QDSTSDLIPAPPLSKVPLQQNFQDNQFHGKWYVVGQAGNIRLREDKDPIKMMATIYELKEDKSYDVTMVKFDDKKCMYDIWTFVPGSQPGEFTLGKIKSFPGHTSSLVRVVSTNYNQHAMVFFKFVFQNREEFYITLYGRTKELTSELKENFIRFSKSLGLPENHIVFPVPIDQCIDGGGGGSGGGGSGGGGSGGGGSGGGGSGVRLWATRQAMLGQVHEVPEGWLIFVAEQEELYVRVQNGFRKVQLEARTPLGGSGGAPEQKLISEEDLGSHHHHHHHHHH	kon	82300

From: patent US20230227568A1
